Test system: HepG2
Experiment: Cytotoxicity against human HepG2 cells assessed as growth inhibition after 48 hrs by MTT assay
Assay type: functional, cell-based
Settings: HepG2, 48 h
assayMetric: IC50

C[C@@H]1CC[C@]2(OC1)O[C@@H]1[C@@H](O)[C@@H]3[C@H]4CC[C@@H]5C[C@H](O[C@H]6O[C@@H](CO)[C@@H](O)[C@@H](O)[C@@H]6O[C@H]6O[C@@H](CO)[C@H](O)[C@@H](O)[C@@H]6O)CC[C@@]5(C)[C@@H]4CC[C@@]3(C)[C@@H]1[C@H]2C    > 50 µM

Field: next compound
IN: Tell us which IC50 value is on record for C[C@@H](CCC1(O)O[C@H]2C[C@H]3[C@@H]4CC[C@H]5C[C@@H](O)CC[C@]5(C)[C@H]4CC[C@]3(C)[C@H]2[C@@H]1C)CO[C@@H]1O[C@H](CO)[C@@H](O)[C@H](O)[C@H]1O (some centres not stated)
OUT: > 50 µM
